Experiment: decrease of insulin promoter-GFP reporter – imaging, high-content screening, mouse beta cells (AID 1628)
Details: MIN6 insulin promoter GFP reporter, at 5 µM
The whole screen tested about 190,000 compounds, of which about 930 (0.49%) were called active.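 How the source made its calls: active means z-score of insulin promoter reporter brightness in nuclei below -3 at 5 µM, with at least 500 cells counted; inconclusive means wells with under 500 cells, flagged as toxic or sparse; inactive means the rest.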 This is one part of the list. Potency and affinity values are given separately.
Outcomes: t (active), f (inactive)

{"compound": "COC(=O)c1[nH]c2ccc(F)cc2c1NC(=O)CCN1CCN(Cc2ccc3c(c2)OCO3)CC1", "classLabel": "t"}
{"compound": "Cc1cc(N2CCOCC2)ccc1/C=C1/SC(=O)NC1=O", "classLabel": "f"}
{"compound": "COC(CNC(=O)c1ccc(Cn2c(=S)[nH]c3cc4c(cc3c2=O)OCO4)cc1)OC", "classLabel": "f"}
{"compound": "O=[N+]([O-])c1ccc(N/N=C/c2c[nH]c3ccccc23)cc1", "classLabel": "f"}
{"compound": "CCN1C=CC2=C(C#N)C(N)C(C#N)(C#N)C(c3ccccc3C(F)(F)F)C2C1 (stereo not given)", "classLabel": "f"}
{"compound": "Cc1ccc(N2CCN(C3=NC(=O)/C(=C\\c4cccs4)S3)CC2)cc1", "classLabel": "t"}
{"compound": "N#C/C(=C/c1ccc(-c2cc(C(=O)O)cc(C(=O)O)c2)o1)c1nc2ccccc2s1", "classLabel": "f"}
{"compound": "CCCNC(=O)Cn1cnc2sc(C(=O)N3CCN(Cc4ccc5c(c4)OCO5)CC3)c(C)c2c1=O", "classLabel": "f"}
{"compound": "COc1ccccc1OCC(O)Cn1c(=N)n(CCN2CCCCC2)c2ccccc21 (stereo not given)", "classLabel": "t"}
{"compound": "CCOC(=O)C(C)S(=O)(=O)c1ccc(C(F)(F)F)cn1 (stereo not given)", "classLabel": "t"}

---

Listed here are compounds together with their documented z-score.
Assay: decrease of insulin promoter-GFP reporter – imaging, high-content screening, mouse beta cells (AID 1628)
Settings: MIN6 insulin promoter GFP reporter, at 5 µM, hits give low values
The campaign covered roughly 190,000 compounds. About 930 (0.49%) were called active. The list shows a part of the results. Results with a measured potency or affinity are listed apart.
measure: z-score

{"compound": "CCOc1ccc(C2C(C(=O)O)c3ccccc3C(=O)N2CCN2CCOCC2)cc1 (configuration not stated)", "measure": "z-score", "observed": 4.94}
{"compound": "COc1ccccc1NC(=O)CSc1nc2c(sc3ccccc32)c(=O)n1CCN(C)C", "measure": "z-score", "observed": 2.23}
{"compound": "COc1ccc(S(=O)(=O)NCc2ccncc2)cc1OC", "measure": "z-score", "observed": -3.36}
{"compound": "CC(C)CCn1c(CN(C)Cc2ccccc2)nc2c1c(=O)n(C)c(=O)n2C", "measure": "z-score", "observed": -5.09}
{"compound": "COC(=O)c1ccccc1NC(=O)Cn1cnc2cc(C)c(C)cc21", "measure": "z-score", "observed": -3.24}
{"compound": "C1=C(N2CCOCC2)/C(=C/c2nc3ccccc3[nH]2)CC1", "measure": "z-score", "observed": 3.43}
{"compound": "O=C(COC(=O)c1ccco1)Nc1ccc2c(c1)OCCO2", "measure": "z-score", "observed": 0.45}
{"compound": "COc1cc([C@@H]2[C@H]3CNCC=C3C(C#N)=C(N)C2(C#N)C#N)ccc1OC(C)C", "measure": "z-score", "observed": 3.59}
{"compound": "Cn1nc(CC(=O)Nc2cccc3ncccc23)c2ccccc2c1=O", "measure": "z-score", "observed": -4.57}
{"compound": "Cc1cc(C)c2nc(NNC(=O)c3cc(-c4cccs4)nc4ccccc34)sc2c1", "measure": "z-score", "observed": 3.73}
{"compound": "CCc1ccc2[nH]c(=O)c(CN(Cc3ccc4c(c3)OCO4)Cc3nnnn3C3CCCC3)cc2c1", "measure": "z-score", "observed": -5.41}
{"compound": "COc1cc(C)c(Cl)cc1S(=O)(=O)NCc1ccncc1", "measure": "z-score", "observed": -4.94}
{"compound": "CC(C)Cn1cnc2c1c(=O)n(C)c(=O)n2C", "measure": "z-score", "observed": -0.43}
{"compound": "CC(C)C(C)(C#N)NC(=O)CSc1nnc(C(F)(F)F)n1C (configuration not stated)", "measure": "z-score", "observed": 3.02}
{"compound": "COc1cccc(S(=O)(=O)NCc2ccc(C(=O)Nc3ccc(Cl)c(Cl)c3)cc2)c1", "measure": "z-score", "observed": 3.13}
{"compound": "CCOc1ccc(C2=C(C=Nc3c(C)n(C)n(-c4ccccc4)c3=O)C(c3ccc(F)cc3)c3ccccc3O2)cc1 (configuration not stated)", "measure": "z-score", "observed": -4.16}
{"compound": "CCc1ccc2[nH]c(=O)c(CN(Cc3nnnn3C3CCCC3)C3CCCCC3)cc2c1", "measure": "z-score", "observed": -3.09}
{"compound": "CC1(C)c2ccccc2N2CC(=O)NC21/C=C/c1ccco1 (configuration not stated)", "measure": "z-score", "observed": 3.29}
{"compound": "O=c1ccnc(Nc2ccc3c(c2)OCCO3)[nH]1", "measure": "z-score", "observed": 3.66}
{"compound": "COc1ccc2c(c1OC)C(=O)OC2", "measure": "z-score", "observed": 0.33}
{"compound": "CCc1cc2c(CN3CCN(CCO)CC3)cc(=O)oc2cc1O", "measure": "z-score", "observed": 3.59}
{"compound": "Cc1cc(C)c2[nH]c(=O)c(CN(Cc3ccc4c(c3)OCO4)Cc3nnnn3C3CCCC3)cc2c1", "measure": "z-score", "observed": -3.04}

---

Test: decrease of insulin promoter-GFP reporter – imaging, high-content screening, mouse beta cells (AID 1628)
Settings: MIN6 insulin promoter GFP reporter, at 5 µM
Out of some 190,000 compounds screened, about 930 (0.49%) were called active.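 Rule for the calls: active = z-score of insulin promoter reporter brightness in nuclei below -3 at 5 µM, with at least 500 cells counted; inconclusive = wells with under 500 cells, flagged as toxic or sparse; inactive = the rest.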 The list shows a part of the results. Potency and affinity values are given separately.
Outcomes: active, inactive

{"compound": "CC(C)(C)NC(=O)N1CCC(CO)(Cc2ccccc2Cl)CC1", "classLabel": "active"}
{"compound": "Cc1nc(CN(C)C(=O)c2cc(COc3ccc4ncccc4c3)on2)cs1", "classLabel": "active"}
{"compound": "CCn1c(Cn2nnc(-c3ccccc3)n2)nnc1SCC(=O)Nc1ccc(C(C)=O)cc1", "classLabel": "inactive"}
{"compound": "COC(=O)CSc1nc2ncc(Cl)cc2[nH]1", "classLabel": "active"}
{"compound": "CC(C)(C)S(=O)(=O)c1ccccc1C(=O)O", "classLabel": "inactive"}
{"compound": "CCOC(=O)N1CCC(NC2CCCCCCC2)CC1", "classLabel": "inactive"}
{"compound": "O=c1[nH]c2ccc(NS(=O)(=O)c3ccc([N+](=O)[O-])cc3)cc2[nH]1", "classLabel": "inactive"}
{"compound": "CN1c2ccccc2N(C)C1c1c(O)ccc2ccccc12", "classLabel": "inactive"}
{"compound": "CSc1nc2ccc(S(N)(=O)=O)cc2s1", "classLabel": "active"}
{"compound": "CN(C)c1ccc(/C=C/c2ccc3ccccc3n2)cc1", "classLabel": "inactive"}
{"compound": "COc1ccc(CNC(=O)CN2CCC(C(=O)c3ccc(OC)cc3)CC2)cc1", "classLabel": "inactive"}
{"compound": "COc1cc(/C=N/N=C(\\N)c2nonc2N)cc(OC)c1OC", "classLabel": "inactive"}
{"compound": "N#C/C(=C/c1ccc(-c2ccc(S(N)(=O)=O)cc2)o1)c1nc2ccccc2s1", "classLabel": "inactive"}
{"compound": "O=C(c1ccc2c(c1)OCO2)N1CCN(c2ccccn2)CC1", "classLabel": "active"}
{"compound": "COc1ccc(OC)c(-n2c(=S)[nH]c3c(sc(=S)n3-c3ccccc3)c2=O)c1", "classLabel": "inactive"}
{"compound": "O=C(CCC(=O)c1ccc(F)cc1)Nc1cccc(C(F)(F)F)c1", "classLabel": "active"}
{"compound": "COc1ccc2c(c1)C(=O)OC2CC(=O)O (stereo not drawn)", "classLabel": "inactive"}
{"compound": "CCOc1cc(N(CC)CC)ccc1/C=C(/C#N)c1nc2ccccc2[nH]1", "classLabel": "inactive"}
{"compound": "COc1ccccc1-n1c(N)cc(=O)nc1SCC(=O)Nc1cc(C)on1", "classLabel": "inactive"}
{"compound": "CN(C)c1ccc(/C=C(/C#N)C(=O)NCc2ccccc2)o1", "classLabel": "inactive"}
{"compound": "Clc1ccc(C[n+]2cc(-c3ccccc3)n3c2CCCCC3)c(Cl)c1", "classLabel": "active"}
{"compound": "O=C(O)C1CCN(C(=O)OCc2ccccc2)CC1", "classLabel": "active"}
{"compound": "CCCOc1ccc2ccccc2c1/C=N/n1c(C)nnc1-n1nc(C)cc1C", "classLabel": "active"}

Origin of values: PubChem BioAssay AID1628
